Structures can show the parent of a compound that is named as a salt.
For each record, write down the corresponding melting point.

Query: Write down melting point measured for item Nc1ncc2sc(=O)n([C@@H]3O[C@H](CO)[C@@H](O)[C@H]3O)c2n1 [Compound 79]
Reply: 220 °C (dec.)

Query: Write down melting point measured for item CNc1nc(N)nc2c1sc(=O)n2[C@@H]1O[C@H](CO)[C@@H](O)[C@H]1O [Compound 18]
Reply: > 108 °C

Query: Write down melting point measured for item COc1nc(N)nc2c1sc(=O)n2[C@@H]1O[C@H](CO)[C@@H](O)[C@H]1O [Compound 14]
Reply: > 160 °C (dec.)

Query: Write down melting point measured for item CC(=O)O[C@@H]1[C@H](OC(C)=O)[C@@H](CO)O[C@H]1n1c(=O)sc2cnc(N)nc21 [Compound 89]
Reply: 109 to 111 °C

Query: Write down melting point measured for item Nc1nc(N2CCCC2)c2sc(=O)n([C@@H]3O[C@H](CO)[C@@H](O)[C@H]3O)c2n1 [Compound 23]
Reply: > 112.4 °C (dec.)

Query: Write down melting point measured for item CC(=O)OC[C@H]1O[C@@H](n2c(=O)sc3cnc(N)nc32)[C@H](OC(C)=O)[C@@H]1OC(C)=O [Compound 78]
Reply: 121 to 123 °C

Query: Write down melting point measured for item Nc1nc(NC2CCCC2)c2sc(=O)n([C@@H]3O[C@H](CO)[C@@H](O)[C@H]3O)c2n1 [Compound 22]
Reply: > 108 °C (dec.)

Query: Write down melting point measured for item CN[C@H](C(=O)OC[C@H]1O[C@@H](n2c(=O)sc3c(O)nc(N)nc32)[C@H](O)[C@@H]1O)C(C)C (as salt: hydrochloride) [Compound 11]
Reply: > 180 °C (dec.)

---

Assay Remarks: Toxicology studies in beagle dogs (GI tolerance)
Stated Conditions: beagle, dog, plasma, iv, 25 mg/kg
Result Type: AUC(0-t) (ng·h/mL)
The response must be a number in ng·h/mL with no trailing unit.

Query: Write down AUC(0-t) measured for item Nc1nc2c(sc(=O)n2[C@@H]2O[C@H](CO)[C@@H](O)[C@H]2O)c(=O)[nH]1 [Compound 1, reference compound]
Reply: 42800

---

Assay Remarks: in vitro
Format: in vitro ADME
Stated Conditions: human, Caco-2
For each record, write down the corresponding Papp A→B.
The response must be a number in ×10⁻⁶ cm/s with no trailing unit.

Query: Write down Papp A→B measured for item CC(=O)OC[C@H]1O[C@@H](n2c(=O)sc3cnc(N)nc32)[C@H](OC(C)=O)[C@@H]1OC(C)=O
Reply: 60

Query: Write down Papp A→B measured for item Nc1ncc2sc(=O)n([C@@H]3O[C@H](CO)[C@@H](O)[C@H]3O)c2n1
Reply: 10

Query: Write down Papp A→B measured for item CC(=O)O[C@@H]1[C@H](OC(C)=O)[C@@H](CO)O[C@H]1n1c(=O)sc2cnc(N)nc21
Reply: 20

---

Assay Remarks: Toxicology studies in beagle dogs (GI tolerance)
Stated Conditions: beagle, dog, plasma, iv, 50 mg/kg
Result Type: AUC(0-t) (ng·h/mL)
The response must be a number in ng·h/mL with no trailing unit.

Query: Write down AUC(0-t) measured for item Nc1nc2c(sc(=O)n2[C@@H]2O[C@H](CO)[C@@H](O)[C@H]2O)c(=O)[nH]1 [Compound 1, reference compound]
Reply: 87800
